Experiment: In vivo drug release: drug concentration in blood plasma after subcutaneous implants
Set-up: species or system Wistar Han rat
Conditions: Wistar Han, plasma, sc, 60 mg; 58 days; rat, three compressed implants subcutaneous
concentration at 58 days listing for selected compounds.

{"compound": "CO[C@H]1/C=C/O[C@@]2(C)Oc3c(C)c(O)c4c(c3C2=O)C2=NC3(CCN(CC(C)C)CC3)NC2=C(NC(=O)/C(C)=C\\C=C\\[C@H](C)[C@H](O)[C@@H](C)[C@@H](O)[C@@H](C)[C@H](OC(C)=O)[C@@H]1C)C4=O [rifabutin]", "unit.descriptor": "nM", "concentration at 58 days": 38.3}
{"compound": "CO[C@H]1/C=C/O[C@@]2(C)Oc3c(C)c(O)c4c(O)c(c(/C=N/N5CCN(C6CCCC6)CC5)c(O)c4c3C2=O)NC(=O)/C(C)=C\\C=C\\[C@H](C)[C@H](O)[C@@H](C)[C@@H](O)[C@@H](C)[C@H](OC(C)=O)[C@@H]1C [rifapentine]", "unit.descriptor": "nM", "concentration at 58 days": 477}
{"compound": "COc1nc2ccc(Br)cc2cc1[C@@H](c1ccccc1)[C@@](O)(CCN(C)C)c1cccc2ccccc12 [bedaquiline]", "unit.descriptor": "nM", "concentration at 58 days": 60.2}
